Test: Selectivity ratio of IC50 for rat P2X2 receptor to IC50 for rat P2X4 receptor

structure notation	IC50
Nc1c(S(=O)(=O)O)cc(Nc2ccc(S(=O)(=O)O)c(Nc3nc(Cl)nc(Cl)n3)c2)c2c1C(=O)c1ccccc1C2=O	> 120 nM

---

# IC50 per record follows
Target: P2Y purinoceptor 2 (Homo sapiens, UniProt P41231)
Sequence (P41231 whole entry): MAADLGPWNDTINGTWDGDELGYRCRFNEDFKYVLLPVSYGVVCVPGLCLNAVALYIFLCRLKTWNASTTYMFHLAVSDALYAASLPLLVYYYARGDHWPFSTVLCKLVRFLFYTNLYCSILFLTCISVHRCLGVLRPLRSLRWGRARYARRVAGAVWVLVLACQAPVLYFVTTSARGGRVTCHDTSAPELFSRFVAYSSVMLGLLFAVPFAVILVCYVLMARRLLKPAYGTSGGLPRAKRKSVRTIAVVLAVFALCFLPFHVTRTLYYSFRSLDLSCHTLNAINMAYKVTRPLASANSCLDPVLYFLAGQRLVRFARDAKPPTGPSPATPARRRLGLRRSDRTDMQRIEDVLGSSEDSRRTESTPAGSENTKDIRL
Assay: Antagonist activity against human P2Y2 receptor expressed in 1321N1 astrocytoma cells by calcium mobilization assay
property label: IC50 (µM)

structure notation	value relation sign	reading
Nc1c(S(=O)(=O)O)cc(Nc2ccc(S(=O)(=O)O)c(Nc3nc(Cl)nc(Cl)n3)c2)c2c1C(=O)c1ccccc1C2=O	=	10
COc1nc(Cl)nc(Nc2ccc(Nc3cc(S(=O)(=O)O)c(N)c4c3C(=O)c3ccccc3C4=O)cc2S(=O)(=O)O)n1	=	24.2
Nc1c(S(=O)(=O)O)cc(Nc2cccc(Cc3ccccc3)c2)c2c1C(=O)c1ccccc1C2=O	>	10
Cc1cccc(Nc2cc(S(=O)(=O)O)c(N)c3c2C(=O)c2ccccc2C3=O)c1	=	10
Nc1c(S(=O)(=O)O)cc(Nc2cc(Nc3nc(Cl)nc(Cl)n3)cc(C(=O)O)c2)c2c1C(=O)c1ccccc1C2=O	=	3.27
Nc1c(S(=O)(=O)O)cc(Nc2cccc(Oc3ccccc3)c2)c2c1C(=O)c1ccccc1C2=O	=	10

Reference for the values: ChEMBL document CHEMBL1671813
